The values you see were collected from patent US20250188043A1.

assay: Thermodynamic solubility; assay type: physicochemical; details: 0.05 M potassium biphthalate buffer, aqueous buffer, thermodynamic from solid; 0.05M buffer pH 3 - Potassium Biphthalate

[
  {
    "Molecule": "N#Cc1ccc(C(F)(c2ccc(C#N)cc2)n2cncn2)cc1 [Form A leflutrozole]",
    "solubility thermodynamic": "< 30 µg/mL"
  }
]

* * *

test: Metabolic stability in human liver microsomes; type: in vitro ADME

[
  {
    "Mol Smiles": "N#Cc1ccc(C(F)(c2ccc(C#N)cc2)n2cncn2)cc1",
    "half-life": "3.35 h"
  }
]

* * *

assay: Thermodynamic solubility; assay type: physicochemical; details: 1% sodium dioctyl sulfosuccinate in water, aqueous with cosolvent or surfactant or cyclodextrin, thermodynamic from solid
Outcome Measure: solubility thermodynamic

[
  {
    "Molecule": "N#Cc1ccc(C(F)(c2ccc(C#N)cc2)n2cncn2)cc1 [Form A leflutrozole]",
    "Measured": "170 µg/mL"
  }
]
